EXPERIMENT DESCRIPTION: Clearance in mouse
Type: ADME, organism-based
PROTOCOL CONDITIONS: in vivo
TEST READOUT: clearance (mL/min/kg)
Numbers only here, please. The scale is mL/min/kg.

Incoming: Give the measured clearance of Cc1nn2c(O)cc(N3CCOCC3)nc2c1Cc1cccc(C(F)(F)F)c1C .
Outgoing: 3.7

====

EXPERIMENT DESCRIPTION: Plasma protein binding in rat serum by equilibrium dialysis
Assay type: ADME, cell-free
PROTOCOL CONDITIONS: read-out: PPB (converted)
TEST READOUT: fraction unbound

Incoming: Give the measured fraction unbound of Cc1nn2c(O)cc(N3CCOCC3)nc2c1Cc1cccc(C(F)(F)F)c1C .
Outgoing: ≤ 0.001

Incoming: Please give the result for Cc1c(Cn2c(C)nc(=O)c3sc(N4CCOCC4)nc32)cccc1C(F)(F)F too.
Outgoing: 0.254

====

TARGET UNDER TEST: Phosphatidylinositol 4,5-bisphosphate 3-kinase catalytic subunit gamma isoform (Homo sapiens, UniProt P48736)
Sequence (P48736 whole entry, canonical isoform): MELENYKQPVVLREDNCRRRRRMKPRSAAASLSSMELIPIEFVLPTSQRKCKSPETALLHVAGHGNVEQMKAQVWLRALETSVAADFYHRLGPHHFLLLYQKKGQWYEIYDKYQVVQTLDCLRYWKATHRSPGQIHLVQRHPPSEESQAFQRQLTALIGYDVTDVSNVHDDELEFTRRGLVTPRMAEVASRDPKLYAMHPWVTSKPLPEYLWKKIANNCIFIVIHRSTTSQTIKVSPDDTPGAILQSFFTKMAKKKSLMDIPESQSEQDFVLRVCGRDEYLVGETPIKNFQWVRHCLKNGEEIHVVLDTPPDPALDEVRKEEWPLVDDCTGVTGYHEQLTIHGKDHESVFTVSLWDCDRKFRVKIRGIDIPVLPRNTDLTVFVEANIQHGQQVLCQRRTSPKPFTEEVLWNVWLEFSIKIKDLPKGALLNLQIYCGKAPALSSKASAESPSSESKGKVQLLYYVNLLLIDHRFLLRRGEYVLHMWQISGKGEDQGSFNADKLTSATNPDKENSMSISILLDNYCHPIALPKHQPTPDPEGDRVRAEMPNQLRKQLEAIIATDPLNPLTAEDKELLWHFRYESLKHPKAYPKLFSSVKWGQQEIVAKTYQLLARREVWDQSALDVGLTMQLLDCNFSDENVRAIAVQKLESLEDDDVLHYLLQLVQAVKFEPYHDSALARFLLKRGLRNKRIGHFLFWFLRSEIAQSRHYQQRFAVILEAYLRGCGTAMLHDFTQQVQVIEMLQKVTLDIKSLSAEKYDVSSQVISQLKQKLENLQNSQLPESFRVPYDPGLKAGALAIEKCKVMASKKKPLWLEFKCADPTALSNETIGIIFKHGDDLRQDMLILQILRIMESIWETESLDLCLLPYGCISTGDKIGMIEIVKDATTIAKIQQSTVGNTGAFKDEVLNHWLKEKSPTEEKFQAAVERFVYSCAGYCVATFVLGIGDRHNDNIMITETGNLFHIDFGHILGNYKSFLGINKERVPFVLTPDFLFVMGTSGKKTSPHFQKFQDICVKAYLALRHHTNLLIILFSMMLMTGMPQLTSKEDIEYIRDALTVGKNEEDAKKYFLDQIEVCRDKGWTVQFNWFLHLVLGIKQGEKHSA
EXPERIMENT DESCRIPTION: Inhibition of PI3Kgamma (unknown origin)
Consider the following molecules; for each one, report its pIC50.
The quantity pIC50 is defined as the negative base-10 logarithm of the molar concentration.

Incoming: Give the measured pIC50 of Cc1nn2c(NCCO)cc(C3CCOCC3)nc2c1Cc1cccc(C(F)(F)F)c1C .
Outgoing: 5.30

Incoming: Please give the result for Cc1nn2c(O)cc(N3CCOC(C)C3)nc2c1Cc1cccc(C(F)(F)F)c1C (stereo unspecified) too.
Outgoing: 6.40

Incoming: Please give the result for Cc1c(Cc2cnn3c(O)cc(N4CCOCC4)nc23)cccc1C(F)(F)F too.
Outgoing: 6.30

Incoming: Please give the result for Oc1cc(-c2ccncc2)nc2c(Cc3cccc(Cl)c3Cl)c(C(F)(F)F)nn12 too.
Outgoing: 6.40

Incoming: Please give the result for Cc1nn2c(O)cc(C3CCOCC3)nc2c1Cc1cccc(C(F)(F)F)c1C too.
Outgoing: 5.60

Incoming: Please give the result for Cc1c(Cc2cnn3c(O)cc(-c4ccncc4)nc23)cccc1C(F)(F)F too.
Outgoing: 6.50

Incoming: Please give the result for CCc1nn2c(O)cc(-c3ccncc3)nc2c1Cc1cccc(Cl)c1Cl too.
Outgoing: 6.40

Incoming: Please give the result for Cc1nn2c(O)cc(N3CCOCC3)nc2c1Cc1cccc(C(F)(F)F)c1C too.
Outgoing: 6.50

Incoming: Please give the result for Cc1nn2c(O)cc(N3CCOCC3=O)nc2c1Cc1cccc(C(F)(F)F)c1C too.
Outgoing: 5.50

Incoming: Please give the result for COc1nn2c(O)cc(-c3ccncc3)nc2c1Cc1cccc(Cl)c1Cl too.
Outgoing: 6.30

====

EXPERIMENT DESCRIPTION: Oral bioavailability mouse
Format: ADME, organism-based
PROTOCOL CONDITIONS: in vivo
TEST READOUT: bioavailability (%)
Numbers only here, please. The scale is %.

Incoming: Give the measured bioavailability of Cc1nn2c(O)cc(N3CCOCC3)nc2c1Cc1cccc(C(F)(F)F)c1C .
Outgoing: 51

====

TARGET UNDER TEST: Phosphatidylinositol 4,5-bisphosphate 3-kinase catalytic subunit delta isoform (Homo sapiens)
Sequence (O00329 whole entry): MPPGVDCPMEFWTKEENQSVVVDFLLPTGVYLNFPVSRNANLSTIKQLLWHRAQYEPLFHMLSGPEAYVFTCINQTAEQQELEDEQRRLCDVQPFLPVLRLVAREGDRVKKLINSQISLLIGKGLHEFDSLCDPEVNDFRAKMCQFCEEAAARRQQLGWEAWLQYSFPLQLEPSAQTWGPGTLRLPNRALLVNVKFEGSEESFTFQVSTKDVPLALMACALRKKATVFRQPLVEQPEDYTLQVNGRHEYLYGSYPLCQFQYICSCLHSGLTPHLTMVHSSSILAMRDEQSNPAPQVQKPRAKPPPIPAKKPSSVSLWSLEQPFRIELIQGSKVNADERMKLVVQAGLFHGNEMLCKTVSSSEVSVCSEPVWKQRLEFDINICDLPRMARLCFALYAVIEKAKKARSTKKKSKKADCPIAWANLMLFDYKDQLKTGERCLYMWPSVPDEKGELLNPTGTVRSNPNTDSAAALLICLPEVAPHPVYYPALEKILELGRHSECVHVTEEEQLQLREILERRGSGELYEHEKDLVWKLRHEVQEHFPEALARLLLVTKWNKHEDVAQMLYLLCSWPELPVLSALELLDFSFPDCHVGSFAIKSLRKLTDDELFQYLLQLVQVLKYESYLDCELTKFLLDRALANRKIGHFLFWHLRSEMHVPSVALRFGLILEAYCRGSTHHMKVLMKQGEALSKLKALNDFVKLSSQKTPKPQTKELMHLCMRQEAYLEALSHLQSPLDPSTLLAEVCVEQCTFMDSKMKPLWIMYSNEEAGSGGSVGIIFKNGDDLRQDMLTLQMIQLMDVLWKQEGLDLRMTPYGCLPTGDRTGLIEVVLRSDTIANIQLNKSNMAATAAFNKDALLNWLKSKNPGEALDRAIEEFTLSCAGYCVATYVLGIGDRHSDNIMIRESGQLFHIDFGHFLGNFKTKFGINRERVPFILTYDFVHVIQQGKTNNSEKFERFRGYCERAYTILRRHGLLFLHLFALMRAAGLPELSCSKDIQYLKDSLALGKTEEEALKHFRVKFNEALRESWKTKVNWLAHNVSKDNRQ
EXPERIMENT DESCRIPTION: Inhibition of PI3Kdelta (unknown origin)
TEST READOUT: pIC50
The quantity pIC50 is defined as the negative base-10 logarithm of the molar concentration.

Incoming: Give the measured pIC50 of Cc1nn2c(N)cc(N3CCOCC3)nc2c1Cc1cccc(C(F)(F)F)c1C .
Outgoing: 6.80

Incoming: Please give the result for Cc1c(Cc2cnn3c(O)cc(N4CCOCC4)nc23)cccc1C(F)(F)F too.
Outgoing: 7.70

Incoming: Please give the result for Cc1c(Cc2cnn3c(O)cc(-c4ccncc4)nc23)cccc1C(F)(F)F too.
Outgoing: 7.00

Incoming: Please give the result for Cc1nn2c(O)cc(N3CCOCC3)nc2c1Cc1cccc2ccccc12 too.
Outgoing: 7.60

Incoming: Please give the result for Oc1cc(-c2ccncc2)nc2c(Cc3cccc(Cl)c3Cl)c(C(F)(F)F)nn12 too.
Outgoing: 7.10
